test system: Bacillus subtilis; experiment: Kirby-Bauer disk diffusion growth inhibition, Bacillus subtilis; format: cell-based; settings: 10 mg/ml in DMSO, 100 μl on 10 mm disk, 18 hours 37° C.
The following compounds are listed with their measured Zone of inhibition Bacillus subtilis values.
Report the figure in mm without appending any unit label.

What value of Zone of inhibition Bacillus subtilis has been recorded for this entry: C=C(C)[C@@H]1CC[C@]2(COC(=O)c3ccccc3C(=O)O)CC[C@]3(C)[C@H](CC[C@@H]4[C@@]5(C)CC[C@H](OC(=O)c6ccccc6C(=O)O)C(C)(C)[C@@H]5CC[C@]43C)[C@@H]12 [Betulin 3,28-diphthalate, Betulin-3,28-diphthalate] 0

What value of Zone of inhibition Bacillus subtilis has been recorded for this entry: C=C(C)[C@@H]1CC[C@]2(COC(=O)CCCC(=O)O)CC[C@]3(C)[C@H](CC[C@@H]4[C@@]5(C)CC[C@H](OC(=O)CCCC(=O)O)C(C)(C)[C@@H]5CC[C@]43C)[C@@H]12 [Betulin 3,28-diglutarate, Betulin-3,28-diglutarate] 0

* * *

test system: Staphylococcus aureus; assay: Kirby-Bauer disk diffusion growth inhibition, Staphylococcus aureus; type: cell-based; conditions: 10 mg/ml in DMSO, 100 μl on 10 mm disk, 18 hours 37° C.
METRIC: Zone of inhibition Staphylococcus aureus
The reply should read as a number followed by its unit.

The cases that follow already have their Zone of inhibition Staphylococcus aureus on record.
[
  {
    "MOLECULE": "C=C(C)[C@@H]1CC[C@]2(COC(=O)COCC(=O)O)CC[C@]3(C)[C@H](CC[C@@H]4[C@@]5(C)CC[C@H](OC(=O)COCC(=O)O)C(C)(C)[C@@H]5CC[C@]43C)[C@@H]12 [Betulin 3,28-didiglycolate, Betulin-3,28-didiglycolate]",
    "ASSAYED_TARGET": "Staphylococcus aureus",
    "Zone of inhibition Staphylococcus aureus": "0 mm"
  },
  {
    "MOLECULE": "C=C(C)[C@@H]1CC[C@]2(COC(=O)CCCC(=O)O)CC[C@]3(C)[C@H](CC[C@@H]4[C@@]5(C)CC[C@H](OC(=O)CCCC(=O)O)C(C)(C)[C@@H]5CC[C@]43C)[C@@H]12 [Betulin 3,28-diglutarate, Betulin-3,28-diglutarate]",
    "ASSAYED_TARGET": "Staphylococcus aureus",
    "Zone of inhibition Staphylococcus aureus": "0 mm"
  }
]

What value of Zone of inhibition Staphylococcus aureus has been recorded for this entry: C=C(C)[C@@H]1CC[C@]2(COC(=O)c3ccccc3C(=O)O)CC[C@]3(C)[C@H](CC[C@@H]4[C@@]5(C)CC[C@H](OC(=O)c6ccccc6C(=O)O)C(C)(C)[C@@H]5CC[C@]43C)[C@@H]12 [Betulin 3,28-diphthalate, Betulin-3,28-diphthalate] 10.0 mm
